test: Cytotoxicity against HEK293 cells assessed as inhibition rate of cell growth at 100 uM incubated for 24 hrs by CCK8 assay relative to control; type: toxicity, cell-based; conditions: human
endpoint: inhibition at 24 h, 100 µM (%)
Answers are plain numbers, in %.

COc1cc(C(C)C)c(Oc2cnc(N)nc2N)cc1-c1ccc2c(c1)OCO2 :: 26.8

I have 6 compounds here; please give me inhibition at 24 h, 100 µM for each one.
1. CCCCCCOc1cc(C(C)C)c(Oc2cnc(N)nc2N)cc1I
2. CCCCOc1cc(C(C)C)c(Oc2cnc(N)nc2N)cc1-c1cc(Cl)cc(Cl)c1
3. COc1cc(C(C)C)c(Oc2cnc(N)nc2N)cc1-c1ccc2ccccc2c1
4. CCC(C)c1cc(OC)c(I)cc1Oc1cnc(N)nc1N (configuration not stated)
5. COc1cc(C(C)C)c(Oc2cnc(N)nc2N)cc1C1CC1
6. CCCCOc1cc(C(C)C)c(Oc2cnc(N)nc2N)cc1-c1ccc(C(F)(F)F)cc1

[A]
[41.5, 43, 13.5, 28.5, 0.06, 40.2]

# batch size: 3; output inhibition at 24 h, 100 µM per entry
1. COc1ccc(-c2cc(Oc3cnc(N)nc3N)c(C(C)C)cc2OC)cc1
2. COc1cc(C(C)C)c(Oc2cnc(N)nc2N)cc1-c1ccc(C(=O)O)cc1
3. COc1cc(C(C)C)c(Oc2cnc(N)nc2N)cc1C

[A]
1: 19.9; 2: 29.9; 3: 15.6
